Listing: MIC of selected molecules
System: Nakaseomyces glabratus
experiment: Antifungal activity against Candida glabrata 20/I after 24 hrs
Type: functional

Please review the following examples before continuing.
1) C[C@]12CC[C@@H]3c4ccc(OCCCCCCCSc5nnnn5-c5ccc(Cl)cc5)cc4CC[C@H]3[C@@H]1CCC2=O : > 250 µM
2) Cc1ccc(-n2nnnc2SCCCCCCCOc2ccc3c(c2)CC[C@@H]2[C@@H]3CC[C@]3(C)C(=O)CC[C@@H]23)cc1 : > 250 µM
3) C[C@]12CC[C@@H]3c4ccc(OCCCCCCCSc5nnnn5-c5ccccc5)cc4CC[C@H]3[C@@H]1CCC2=O : > 250 µM
4) Cc1ccc(-n2nnnc2SCc2ccccc2)cc1 : > 250 µM
5) C[C@]12CC[C@@H]3c4ccc(OCCCCCCCBr)cc4CC[C@H]3[C@@H]1CCC2=O : > 125 µM
6) C[C@]12CC[C@@H]3c4ccc(OCCCCCCC[n+]5ccc(SCc6ccc(Cl)cc6)cc5)cc4CC[C@H]3[C@@H]1CCC2=O.[Br-] : 15.6 µM
7) c1ccc(CSc2nnnn2-c2ccccc2)cc1 : > 250 µM

Shifting focus to the molecule that follows.
Please look up its MIC: Clc1ccc(-n2nnnc2SCc2ccccc2)cc1
> 250 µM

----------
Listing: GI50 of selected molecules
Test system: L929
experiment: Antiproliferative activity against mouse L929 cells after 72 hrs
Type: functional
recorded.conditions: L929, 72 h
// units = µg/mL; emit number, no label

1) C[C@]12CC[C@@H]3c4ccc(OCCCCCCC[n+]5ccc(SCc6ccccc6)cc5)cc4CC[C@H]3[C@@H]1CCC2=O.[Br-] : 4
2) Cc1ccc(-n2nnnc2SCc2ccccc2)cc1 : 12.5
3) Clc1ccc(-n2nnnc2SCc2ccccc2)cc1 : 16.7
4) C[C@]12CC[C@@H]3c4ccc(OCCCCCCC[n+]5ccccc5)cc4CC[C@H]3[C@@H]1CCC2=O.[Br-] : 16.7
5) Clc1ccc(CSc2ccncc2)cc1 : 21.2
6) c1ccc(CSc2ccncc2)cc1 : 34.3

Please look up its GI50: Cc1ccc(CSc2cc[n+](CCCCCCCOc3ccc4c(c3)CC[C@@H]3[C@@H]4CC[C@]4(C)C(=O)CC[C@@H]34)cc2)cc1.[Br-]
3.5

----------
Tested on: Candida tropicalis
experiment: Antifungal activity against Candida tropicalis 156 after 24 hrs
Format: functional
observable: MIC

1. C[C@]12CC[C@@H]3c4ccc(OCCCCCCCSc5nnnn5-c5ccc(Cl)cc5)cc4CC[C@H]3[C@@H]1CCC2=O : > 250 µM
2. C[C@]12CC[C@@H]3c4ccc(OCCCCCCCSc5nnnn5-c5ccccc5)cc4CC[C@H]3[C@@H]1CCC2=O : > 250 µM

Please look up its MIC: C[C@]12CC[C@@H]3c4ccc(OCCCCCCC[n+]5ccc(SCc6ccccc6)cc5)cc4CC[C@H]3[C@@H]1CCC2=O.[Br-]
15.6 µM

Please look up its MIC: C[C@@H]1[C@H](O)[C@@H](C)/C=C/C=C/C=C/C=C/C=C/C=C/C=C/[C@H](O[C@@H]2O[C@H](C)[C@@H](O)[C@H](N)[C@@H]2O)C[C@@H]2O[C@](O)(C[C@@H](O)C[C@@H](O)[C@H](O)CC[C@@H](O)C[C@@H](O)CC(=O)O[C@H]1C)C[C@H](O)[C@H]2C(=O)O
0.07 µM

Please look up its MIC: Cc1ccc(-n2nnnc2SCc2ccccc2)cc1
> 250 µM

----------
Tested on: Pichia kudriavzevii
experiment: Antifungal activity against Candida krusei E28 after 24 hrs
Assay type: functional
observable: MIC

Please review the following examples before continuing.
1. Clc1ccc(-n2nnnc2SCc2ccccc2)cc1 : > 250 µM
2. C[C@]12CC[C@@H]3c4ccc(OCCCCCCCSc5nnnn5-c5ccc(Cl)c(Cl)c5)cc4CC[C@H]3[C@@H]1CCC2=O : > 250 µM

Shifting focus to the molecule that follows.
Please look up its MIC: Cc1ccc(-n2nnnc2SCCCCCCCOc2ccc3c(c2)CC[C@@H]2[C@@H]3CC[C@]3(C)C(=O)CC[C@@H]23)cc1
> 250 µM

----------
System: Mycobacterium tuberculosis
experiment: Antimicrobial activity against Mycobacterium tuberculosis My 331/88 after 14 days
Type: functional
recorded.conditions: 336 h
Listing: log10(MIC) of selected compounds
Use the decimal logarithm of MIC (µM).

Please review the following examples before continuing.
1. Clc1ccc(-n2nnnc2SCc2ccccc2)cc1Cl : 1.20
2. Cc1ccc(CSc2cc[n+](CCCCCCCOc3ccc4c(c3)CC[C@@H]3[C@@H]4CC[C@]4(C)C(=O)CC[C@@H]34)cc2)cc1.[Br-] : 0.60
3. Clc1ccc(CSc2ccncc2)cc1 : 1.51
4. C[C@]12CC[C@@H]3c4ccc(OCCCCCCC[n+]5ccccc5)cc4CC[C@H]3[C@@H]1CCC2=O.[Br-] : 1.20
5. C[C@]12CC[C@@H]3c4ccc(OCCCCCCC[n+]5ccc(SCc6ccccc6)cc5)cc4CC[C@H]3[C@@H]1CCC2=O.[Br-] : 0.60

Please look up its log10(MIC): c1ccc(CSc2nnnn2-c2ccccc2)cc1
1.20

Please look up its log10(MIC): Cc1ccc(-n2nnnc2SCCCCCCCOc2ccc3c(c2)CC[C@@H]2[C@@H]3CC[C@]3(C)C(=O)CC[C@@H]23)cc1
2.70

Please look up its log10(MIC): Cc1ccc(-n2nnnc2SCc2ccccc2)cc1
1.51

Please look up its log10(MIC): NNC(=O)c1ccncc1 [ISONIAZID]
-0.30

Please look up its log10(MIC): Cc1ccc(CSc2ccncc2)cc1
1.80

Please look up its log10(MIC): Clc1ccc(-n2nnnc2SCc2ccccc2)cc1
1.20

----------
Listing: MIC of selected molecules
Tested on: Mycobacterium kansasii
experiment: Antimicrobial activity against Mycobacterium kansasii My 6509/96 after 21 days
Format: functional
recorded.conditions: 504 h

Please review the following examples before continuing.
1) C[C@]12CC[C@@H]3c4ccc(OCCCCCCCSc5nnnn5-c5ccc(Cl)c(Cl)c5)cc4CC[C@H]3[C@@H]1CCC2=O : > 500 µM
2) C[C@]12CC[C@@H]3c4ccc(OCCCCCCC[n+]5ccccc5)cc4CC[C@H]3[C@@H]1CCC2=O.[Br-] : 32 µM
3) c1ccc(CSc2nnnn2-c2ccccc2)cc1 : 125 µM
4) C[C@]12CC[C@@H]3c4ccc(OCCCCCCCSc5nnnn5-c5ccccc5)cc4CC[C@H]3[C@@H]1CCC2=O : > 500 µM
5) Cc1ccc(-n2nnnc2SCc2ccccc2)cc1 : 250 µM

Shifting focus to the molecule that follows.
Please look up its MIC: Clc1ccc(-n2nnnc2SCc2ccccc2)cc1Cl
62.5 µM

----------
Listing: MIC of selected compounds
System: Mycobacterium kansasii
experiment: Antimicrobial activity against Mycobacterium kansasii My 235/80 after 21 days
Assay type: functional
recorded.conditions: 504 h

Lab note: need MIC with Mycobacterium kansasii for entry Sc1nnnn1-c1ccc(Cl)cc1 , please look it up.
> 500 µM

Lab note: need MIC with Mycobacterium kansasii for entry C[C@]12CC[C@@H]3c4ccc(OCCCCCCCSc5nnnn5-c5ccc(Cl)c(Cl)c5)cc4CC[C@H]3[C@@H]1CCC2=O , please look it up.
> 500 µM

Lab note: need MIC with Mycobacterium kansasii for entry Cc1ccc(-n2nnnc2SCCCCCCCOc2ccc3c(c2)CC[C@@H]2[C@@H]3CC[C@]3(C)C(=O)CC[C@@H]23)cc1 , please look it up.
> 500 µM

Lab note: need MIC with Mycobacterium kansasii for entry NNC(=O)c1ccncc1 [ISONIAZID] , please look it up.
> 250 µM

Lab note: need MIC with Mycobacterium kansasii for entry Sc1nnnn1-c1ccccc1 , please look it up.
> 500 µM

----------
System: Mycobacterium avium
experiment: Antimicrobial activity against Mycobacterium avium My 330/88 after 14 days
Type: functional
recorded.conditions: 336 h
Listing: MIC of selected compounds

1. Cc1ccc(-n2nnnc2SCCCCCCCOc2ccc3c(c2)CC[C@@H]2[C@@H]3CC[C@]3(C)C(=O)CC[C@@H]23)cc1 : > 500 µM

Please look up its MIC: Sc1nnnn1-c1ccccc1
> 500 µM

Please look up its MIC: NNC(=O)c1ccncc1
> 250 µM

Please look up its MIC: Sc1nnnn1-c1ccc(Cl)c(Cl)c1
> 250 µM

Please look up its MIC: Sc1nnnn1-c1ccc(Cl)cc1
> 500 µM

----------
System: Candida tropicalis
experiment: Antifungal activity against Candida tropicalis 156 after 24 hrs
Assay type: functional
Listing: MIC of selected molecules

1) Cc1ccc(-n2nnnc2SCCCCCCCOc2ccc3c(c2)CC[C@@H]2[C@@H]3CC[C@]3(C)C(=O)CC[C@@H]23)cc1 : > 250 µM
2) OC(Cn1cncn1)(Cn1cncn1)c1ccc(F)cc1F : 1.6 µM
3) C[C@]12CC[C@@H]3c4ccc(OCCCCCCCSc5nnnn5-c5ccc(Cl)c(Cl)c5)cc4CC[C@H]3[C@@H]1CCC2=O : > 250 µM
4) C[C@]12CC[C@@H]3c4ccc(OCCCCCCCBr)cc4CC[C@H]3[C@@H]1CCC2=O : > 125 µM
5) c1ccc(CSc2nnnn2-c2ccccc2)cc1 : > 250 µM

Lab note: need MIC with Candida tropicalis for entry Clc1ccc(-n2nnnc2SCc2ccccc2)cc1 , please look it up.
> 250 µM

Lab note: need MIC with Candida tropicalis for entry C[C@]12CC[C@@H]3c4ccc(OCCCCCCC[n+]5ccccc5)cc4CC[C@H]3[C@@H]1CCC2=O.[Br-] , please look it up.
15.6 µM

Lab note: need MIC with Candida tropicalis for entry C[C@]12CC[C@@H]3c4ccc(OCCCCCCC[n+]5ccc(SCc6ccc(Cl)cc6)cc5)cc4CC[C@H]3[C@@H]1CCC2=O.[Br-] , please look it up.
15.6 µM

Lab note: need MIC with Candida tropicalis for entry Clc1ccc(-n2nnnc2SCc2ccccc2)cc1Cl , please look it up.
> 250 µM
